System: RPMI-8226 leukemia
METHOD_SUMMARY: NCI tumour cell line growth inhibition, 48 h
VALUE_TYPE: TGI (µM)
All answers are understood in µM, so give the number only.

In [3]: df
Out[3]:
                                   compound       tested_target  uom  numeric_value
0  CC(=O)OCC1OC(n2c(N)c(C#N)c(-c3cccc(Cl)c3)c(C#N)c2=S)C(OC(C)=O)C(OC(C)=O)C1OC(C)=O (stereo not given)  RPMI-8226 leukemia   µM           39.7
1  O=C1/C(=C/c2ccc(Cl)cc2)CN(C(=O)CCN2CCC(=NO)CC2)C/C1=C\c1ccc(Cl)cc1  RPMI-8226 leukemia   µM          0.552
2  COc1cnc2c(c1)C(=O)c1c-2n(CCCNCCN2CCOCC2)c(=O)c2cc([N+](=O)[O-])ccc12  RPMI-8226 leukemia   µM           1.55

Ask: Test system RPMI-8226 leukemia; read-out TGI; what value for C1=CN2C[n+]3ccc4ccccc4c3N=C2c2ccccc21 ?
Reply: 11.8

---

Tested on: M14 melanoma
METHOD_SUMMARY: NCI tumour cell line growth inhibition, 48 h
# Lookup of reported TGI keyed by entry
All answers are understood in µM, so give the number only.

>>> print(df.to_string())
                           structure_string  value_type  numeric_value
0  O=c1c2c(=NCCN3CCCC3)cc3c(=O)n(CCCN4CCOCC4)c(=O)c4ccc(c(O)n1CCCN1CCOCC1)c2c4-3         TGI           1.19

Ask: So what's the measured TGI for this one? O=C1/C(=C/c2ccc(Cl)c(Cl)c2)CNC/C1=C\c1ccc(Cl)c(Cl)c1
Reply: 33.9

---

Tested on: OVCAR-5 ovarian
METHOD_SUMMARY: NCI tumour cell line growth inhibition, 48 h
# Lookup of reported TGI keyed by entry
All answers are understood in µM, so give the number only.

Study these solved cases before continuing.
In [3]: df
Out[3]:
                                   compound  uom  numeric_value
0  COc1ccc(/C=N\NC(=O)c2ccc3nc(-c4ccc(Cl)cc4)[nH]c3c2)cc1   µM           6.89
1  Cn1cnc(SC2=C3C(=O)C=C4S[C@H]5C[C@]42c2c(c(O)c4c6c2=[N+]3CCC=6C=N4)N5)c1CC(N)C(=O)O (some centres undefined)   µM           28.5
2  O=C(Cc1csc2nc(-c3ccc(Br)cc3)cn12)N/N=C/c1ccc(Cl)cc1Cl   µM           67.3

Ask: So what's the measured TGI for this one? COc1ccc(C(=O)/C=C/c2cc(-c3ccc4c(c3)OCO4)n[nH]2)cc1OC
Reply: 23.2

---

Test system: DU-145 prostate
METHOD_SUMMARY: NCI tumour cell line growth inhibition, 48 h
VALUE_TYPE: TGI

Study these solved cases before continuing.
MOLECULE	RESULT
O=C1C=C(O)c2c(O)ccc(O)c2C1=O	> 100 µM
OC(C1CCCCCCCCCC1)C(O)C1CCCCCCCCCC1 (centres undefined)	> 100 µM

Ask: Test system DU-145 prostate; read-out TGI; what value for Oc1ccc(Oc2cnc3cc(Cl)ccc3n2)cc1 ?
Reply: > 100 µM

Ask: Test system DU-145 prostate; read-out TGI; what value for COc1ccc(/C=N\NC(=O)c2ccc3nc(-c4ccc(Cl)cc4)[nH]c3c2)cc1 ?
Reply: 4.61 µM

Ask: Test system DU-145 prostate; read-out TGI; what value for O=C(Cc1ccc(Nc2ccnc(C(F)(F)F)c2)cc1)Nc1cc(Cl)ccc1O ?
Reply: 38.1 µM

---

Test system: U251 CNS
METHOD_SUMMARY: NCI tumour cell line growth inhibition, 48 h
# Lookup of reported TGI keyed by entry

Study these solved cases before continuing.
>>> df
                                   compound    result
0         CC(=O)OCCOCNC(=S)N/N=C(\C)c1cccs1  > 100 µM
1  CN1CCN(c2ccc3nc(-c4[nH]ncc4Nc4ncnc5c4OCCCN5)[nH]c3c2)CC1  0.123 µM
2      O=c1[nH]c(=O)n(COCc2ccccc2)c2ccccc12  > 100 µM
3   O=c1c2cc(I)ccc2nc(SCc2nnco2)n1Cc1ccccc1  > 100 µM
4  COc1cc(-c2nc(-c3ccc(-c4nc5ccc(F)cc5[nH]4)cc3)no2)cc(OC)c1OC   28.8 µM

Ask: Test system U251 CNS; read-out TGI; what value for O=C(CCN1CCCC1)Nc1ccc2c(NCCc3ccccc3)c3ccccc3nc2c1 ?
Reply: 1.55 µM

Ask: Test system U251 CNS; read-out TGI; what value for C[N+](C)(C)CC(CC(=O)[O-])C1CC1 (configuration not stated) ?
Reply: > 100 µM

Ask: Test system U251 CNS; read-out TGI; what value for O=C1CCCC(O)=C1SC1=C(O)CCCC1=O ?
Reply: > 100 µM

Ask: Test system U251 CNS; read-out TGI; what value for CC(C)CN1CC(C)C(=O)NC1=O (configuration not stated) ?
Reply: > 100 µM

Ask: Test system U251 CNS; read-out TGI; what value for O=C1CCNC(=O)NC1 ?
Reply: > 100 µM

Ask: Test system U251 CNS; read-out TGI; what value for OCCn1cc(-c2cnc3nnn(Cc4ccc5ncccc5c4)c3n2)cn1 ?
Reply: > 100 µM

Ask: Test system U251 CNS; read-out TGI; what value for CN(C)CCNC(=O)c1c2ccccc2cc2ccccc12 ?
Reply: > 100 µM

Ask: Test system U251 CNS; read-out TGI; what value for O=C(/C=C/c1ccccc1O)c1cccc2ccccc12 ?
Reply: > 66.4 µM

Ask: Test system U251 CNS; read-out TGI; what value for CCOC(OCC)C(CC)[Se]c1ccccc1 (configuration not stated) ?
Reply: > 100 µM

Ask: Test system U251 CNS; read-out TGI; what value for O=C1CCSC(=S)N1c1ccc(Br)c(Cl)c1 ?
Reply: 63.7 µM

Ask: Test system U251 CNS; read-out TGI; what value for CC(C)C[CH2][Ge]([CH2]CC(C)C)([CH2]CC(C)C)[CH2]CC(C)C ?
Reply: > 100 µM

Ask: Test system U251 CNS; read-out TGI; what value for C1=CN2C[n+]3ccc4ccccc4c3N=C2c2ccccc21 ?
Reply: 10.2 µM

Ask: Test system U251 CNS; read-out TGI; what value for CC(=O)c1ccc2c3c1O[C@H]1c4[nH]c5ccccc5c4C[C@@]4(O)[C@@H](C2)N(CC2CC2)CC[C@]314 ?
Reply: 26.1 µM

Ask: Test system U251 CNS; read-out TGI; what value for COc1ccc(Cn2c3ccc([N+](=O)[O-])cc3c(=O)n2Cc2ccccn2)cc1 ?
Reply: > 100 µM

Ask: Test system U251 CNS; read-out TGI; what value for CC(=O)OCC1OC(n2c(N)c(C#N)c(-c3cccc(Cl)c3)c(C#N)c2=S)C(OC(C)=O)C(OC(C)=O)C1OC(C)=O (configuration not stated) ?
Reply: 78.9 µM

Ask: Test system U251 CNS; read-out TGI; what value for CC(C)(C)OC(=O)n1c(Cl)c(C=O)c2ccccc21 ?
Reply: > 100 µM

Ask: Test system U251 CNS; read-out TGI; what value for CN(C)CC1CCCCCC(Br)C1=O (configuration not stated) ?
Reply: 43 µM

Ask: Test system U251 CNS; read-out TGI; what value for Cc1ccc(N=C2SC(=NN(C)C)SC2=Nc2ccc(C)cc2)cc1 ?
Reply: > 100 µM

---

Test system: HS 578T breast
METHOD_SUMMARY: NCI tumour cell line growth inhibition, 48 h
VALUE_TYPE: TGI

Study these solved cases before continuing.
                                   molecule     result
0             O=C1C(Br)=C(Br)C(=O)c2ccccc21  > 60.7 µM
1  COc1cc(/C(=C2/O[C@@H]([C@H]3COC(C)(C)O3)[C@H]3OC(C)(C)O[C@@H]23)c2ccc3c(c2)OCO3)cc(OC)c1OC    > 25 µM
2     Cc1cc2oc3c(ccc(=O)n3C)c(=O)c2c(C)c1Cl      93 µM
3  O=C(c1ccccc1)c1c(C(F)(F)F)n([O-])c2cc(F)c(F)cc2[n+]1=O    2.48 µM
4  CN1CCN(c2ccc3nc(-c4[nH]ncc4Nc4ncnc5c4OCCCN5)[nH]c3c2)CC1  0.0302 µM
5  COc1ccc(C2C(C#N)=C(S)N(C3OC(CO)C(O)C(O)C3O)C(C)=C2C(C)=O)cc1 (centres undefined)   > 100 µM

Ask: So what's the measured TGI for this one? Cc1ccc(N=C2SC(=NN(C)C)SC2=Nc2ccc(C)cc2)cc1
Reply: > 100 µM

Ask: So what's the measured TGI for this one? COc1ccc(-n2cc(-c3cc(OC)c(OC)c(OC)c3)[nH]c2=S)cc1Cl
Reply: 60 µM

Ask: So what's the measured TGI for this one? CCOC(=O)C(NC(=O)CC)(Nc1ccc(S(=O)(=O)Nc2ccc(OC)nn2)cc1)C(F)(F)F (centres undefined)
Reply: > 100 µM
